assay system: TaqAA (Thermus aquaticus, UniProt P19821 1-832, E742A)
Sequence (P19821 whole entry E742A): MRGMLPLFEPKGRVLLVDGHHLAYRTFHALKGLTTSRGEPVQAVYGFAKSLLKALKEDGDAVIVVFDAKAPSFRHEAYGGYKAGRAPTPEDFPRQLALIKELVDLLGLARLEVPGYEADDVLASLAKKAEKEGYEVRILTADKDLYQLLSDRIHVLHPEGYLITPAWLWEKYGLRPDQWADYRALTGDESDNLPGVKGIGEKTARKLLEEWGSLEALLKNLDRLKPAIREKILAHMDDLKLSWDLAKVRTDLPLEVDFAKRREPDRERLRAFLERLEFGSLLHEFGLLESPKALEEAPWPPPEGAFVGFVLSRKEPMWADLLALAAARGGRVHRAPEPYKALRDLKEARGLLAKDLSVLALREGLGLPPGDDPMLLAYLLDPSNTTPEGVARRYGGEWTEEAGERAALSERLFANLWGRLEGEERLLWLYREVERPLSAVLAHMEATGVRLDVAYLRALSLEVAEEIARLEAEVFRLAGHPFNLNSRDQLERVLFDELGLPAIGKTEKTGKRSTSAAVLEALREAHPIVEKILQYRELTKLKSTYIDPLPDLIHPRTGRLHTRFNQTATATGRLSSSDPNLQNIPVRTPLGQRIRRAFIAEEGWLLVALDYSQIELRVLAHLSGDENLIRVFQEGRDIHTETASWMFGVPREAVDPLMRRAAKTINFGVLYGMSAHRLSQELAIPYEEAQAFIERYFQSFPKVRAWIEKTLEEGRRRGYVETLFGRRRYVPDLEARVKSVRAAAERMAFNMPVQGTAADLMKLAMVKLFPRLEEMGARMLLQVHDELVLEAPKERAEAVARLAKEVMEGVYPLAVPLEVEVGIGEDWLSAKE
method summary: EMSA; 5 mM Mg2+; apparent Kd; EMSA: 3 nM DNA, 20 mM Tris-HCl pH 8.8, 10 mM NaCl, 5 mM MgCl2, 14 mM 2-mercaptoethanol, 0.1 mg/ml BSA, 5% glycerol, 40 C, 5 min; 1% agarose gel
condition: protein: recombinant; label: 32P on 27mer; primer-template; 27 bp duplex, 5' overhang 22 nt on the 49mer template
readout type: Kd (nM)
Answers are plain numbers, in nM.

Value of measured Kd for the entry primed DNA (27mer/49mer) (dsDNA) DNA 1: AGCTATGACCATGATTACGAATTGCTT DNA 2: AGCTACCATGCCTGCACGAATTAAGCAATTCGTAATCATGGTCATAGCT : 9
